Molecular target: Dopamine receptors; D1 & D2 (Rattus norvegicus) (UniProt P18901+P61169)
Test: Relative binding affinity for dopamine receptors D1 and D2 in rat striatal homogenates
Strictly below 4 in Selectivity: true. Otherwise: false.

entry.smiles	classification
CCCN1Cc2cc(C)ccc2[C@@H]2c3cc(O)c(O)cc3CC[C@H]21	true
Oc1cc2c(cc1O)[C@H]1c3cc(-c4ccccc4)ccc3CN[C@@H]1CC2	true
Oc1ccc2c(c1)[C@@H]1c3cc(O)c(O)cc3CC[C@H]1NC2	false
Oc1ccc2c(c1)CN[C@@H]1CCc3cc(O)c(O)cc3[C@@H]21	false
CCc1ccc2c(c1)[C@@H]1c3cc(O)c(O)cc3CC[C@H]1NC2	false
Cc1cccc2c1CN[C@@H]1CCc3cc(O)c(O)cc3[C@@H]21	true
Cc1ccc2c(c1)CN[C@@H]1CCc3cc(O)c(O)cc3[C@@H]21	true
